meta.source: PubChem BioAssay

experiment description: antimalarial activity against Dd2 strain (AID 2302)
experimental conditions: P. falciparum Dd2 in RBCs, LDH growth readout, 72 h; at 2 µM
Activity calls are given as the source filed them.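 The calls were made as follows: active = growth inhibition above 50% at the single 2 µM test dose, taken to imply half-maximal potency below 2 µM; inactive = the rest.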
The reply should name one outcome from True (active), False (inactive)

Test call for this molecule, please: "CCNc1cc(C)nc(Nc2ccc(NC(=O)c3c(F)cccc3Cl)cc2)n1"
True

Hello, I am checking results. What call was entered for "Cc1ccc(O)cc1Nc1ccnc2cc(-c3csc(CN4CCN(C)CC4)n3)ccc12" ?
True

Dear colleague, could you share the recorded outcome for "CN1C(C)(C)CC(NC(=O)c2ccc(-c3nc4ccc(Cl)cc4[nH]3)cc2)CC1(C)C" when you have a moment?
False

Query: recorded result category for "Clc1ccc(-c2ncc(-c3ccncc3)[nH]2)cc1Cl" in this test
True

Hi, sorry to bother you, what did the test record for "CCCCCCN1CCCN(Cc2ccc(C(=O)Nc3ccc(C)c(F)c3)cc2)CC1" ?
True

# lookup: test call for "Cc1cc(NN=Cc2ccc(F)cc2)c2cc(F)ccc2n1"
True

Tell me the assay call for "Cc1nc2nc(N)nc(N)c2c(C)c1Cc1c(Cl)cccc1Cl" please.
False

Which outcome was assigned to O=C(/C=C/c1ccc(Cl)c(Cl)c1)NCCCCCN1CCCC(CNC(=O)Nc2ccc(Oc3ccccc3)cc2)C1 (stereo not given) in this test?
False

For CCN(CC)CC(O)CNc1c2ccc([N+](=O)[O-])cc2nc2cc(OC)c(OC)cc12 (stereo not given) , which call appears in the assay record?
True

Write down the call the test reported for this molecule. Item: "Cc1cccc(NC(=O)Nc2cccc(-c3ccc(-c4nc5ccc(C(F)(F)F)cc5[nH]4)cc3)c2)c1"
True

Please state the recorded outcome for this molecule: "O=C(NCc1ccc(Cl)cc1)c1ccc(CN2CCCN(Cc3cccc(O)c3)CC2)cc1"
False

Write down the call the test reported for this molecule. Item: CCCCCCC(N)c1ccc(OCCCOc2ccc(C(N)CCCCCC)cc2)cc1 (stereo not given)
True

Identify the outcome logged in this assay for the molecule shown: O=C(C=Cc1ccc(Cl)c(Cl)c1)NCCCCCN1CCCC(CCCNC(=O)c2cccs2)C1 (stereo not given)
False

Called result for "O=c1[nH]c2c(c(O)c1[N+](=O)[O-])CCC2"
False

How did this test come out for "CCN(CCCN1CCCCC1)c1cc(C)nc(Nc2ccc(C(C)C)cc2)n1" ?
True

Per the records of this test, what outcome belongs to "COc1cccc(CC(=O)N2CCC(n3c(C)nc4ccc(C)cc43)CC2)c1" ?
True

State the result this test recorded for "CC(C)c1ccc(NC(=O)N2CCc3ccc(OCCN(C(C)C)C(C)C)cc32)c(Br)c1" .
False

What outcome does the record of this test show for "Cc1nc2ccccc2c(=O)n1N=Cc1ccccc1[N+](=O)[O-]" ?
False

Call for entry "O=c1[nH]ccc2nc(N[C@@H]3CCNC3)nc(Nc3cccc(S(=O)(=O)N4CCOCC4)c3)c12" :
True

GET /call?item= "O=S(=O)(Nc1ccc2nccc(N3CCNCC3)c2c1)c1ccc2oc3ccccc3c2c1" returns the recorded outcome of this test.
False

Hi team, can someone confirm the assay call for "Cc1cc(C(=O)NC2CCN(Cc3ccccc3)CC2)ccc1-c1nc2cc(Cl)c(Cl)cc2[nH]1" ?
False

Outcome logged for "Clc1ccc(CNc2nc(NCCc3cnc[nH]3)nc(NC3CCCCC3)n2)cc1" in this assay:
False

Assay outcome for "OCCNc1nc(Nc2cccc(O)c2)nc2ccccc12" : what was it?
True

Given "CC(=O)Nc1ccc(OCCN(Cc2ccccc2C(F)(F)F)c2ccc(C#N)c(C(F)(F)F)c2)c(Cl)c1" , state the outcome it received in this test.
True

What classification did "COc1ccc2nccc([C@@H](O)CN3CCC(NCc4cc5ccccc5nn4)CC3)c2c1" end up with in this test?
False

State the result this test recorded for CN(C)C(CNC(=O)c1cc(-c2ccncc2)c(-c2ccc(NC(=O)Nc3ccccc3)cc2)o1)c1ccccc1 (stereo not given) .
True

Answer briefly: the call reported for "CC(C)(CNC(=O)C1CCN(CC2CCCCC2)CC1)c1nc(-c2ccc(Cl)c(O)c2)c(-c2ccncc2)[nH]1" in this assay.
False

# outcome recorded in this test, key = "CC[C@H](C)CNC(=O)c1cncc(-c2ccc(CN(C)C3CCN(C)CC3)cc2)c1"
True

What did the test return for "Oc1ccc2[nH]c(-c3cccs3)nc2c1CN1CCC(N2CCCC2)CC1" ?
False

Record request — test call for "O=C(Nc1ccc(S(=O)(=O)N2CCCCCC2)cc1)c1cc(-c2ccccc2O)n[nH]1"
True

Look up the recorded call for "CCOc1cc(N)c2nc3ccc([N+](=O)[O-])cc3cc2c1" in this test.
True

Answer briefly: the call reported for "Cc1cc(=O)[nH]c(/N=C(/N)NOCc2ccccc2)n1" in this assay.
False

Could you kindly confirm the outcome this assay logged for "CCCOc1c(CCNCCCCNCCc2ccc3ccccc3c2OCCC)ccc2ccccc12" ?
True

Tell me the recorded outcome of this test for "N=c1n(CCN2CCCCC2)c2ccccc2n1CC(=O)c1cccc([N+](=O)[O-])c1" .
False

# fetch the recorded call for "CN1CCN(CCCN(Cc2csc(-c3ccc(CNCc4ccccc4)cc3)n2)C(=O)Nc2cccc(Cl)c2)CC1" here
True

Outcome? "O=C(Nc1cccc(Cl)c1Cl)N[C@H]1CCN(CCCCCNC(=O)[C@@H]2C[C@H]2c2ccc(Cl)c(Cl)c2)C1"
False

Recorded test call requested for "CC1(C)N=C(N)N=C(N)N1OCCCOc1cccc(C(=O)O)c1"
True

Status in this test for Cc1noc(-c2ccc3c(c2)CCN(CCC2CCC(NC(=O)c4cc5ccccc5[nH]4)CC2)CC3)n1 (stereo not given) ?
False

Returns: the outcome recorded for "COc1ccc(CCCc2nc(N)nc(N)c2-c2ccc(Cl)cc2)cc1" in this assay.
False

Could you kindly confirm the outcome this assay logged for "O=C(Nc1cccc(CN2CCN(C(=O)c3cccc(Cl)c3)CC2)c1)c1ccco1" ?
True
